# Test: Inhibition of sweet almond beta-glucosidase after 10 mins using 4-nitrophenylbeta-D-glucopyranoside as a substrate by Lineweaver-Burk and double reciprocal analysis
# Design: species or system Prunus dulcis
Endpoint label: Ki (nM)

The following compounds have reported results that may help.
>  <Smiles str>
CC(C)(CCc1cn2c(n1)[C@H](O)[C@@H](O)[C@H](O)[C@H]2CO)C(=O)Nc1ccccc1

>  <U>
nM

>  <Ki>
3.5

$$$$
>  <Smiles str>
O=C(CCc1cn2c(n1)[C@H](O)[C@@H](O)[C@H](O)[C@H]2CO)Nc1ccccc1

>  <U>
nM

>  <Ki>
6.8

$$$$
>  <Smiles str>
COc1ccc(CCc2cn3c(n2)[C@H](O)[C@@H](O)[C@H](O)[C@H]3CO)cc1

>  <U>
nM

>  <Ki>
2

$$$$

(1) CC(C)(C)CCc1cn2c(n1)[C@H](O)[C@@H](O)[C@H](O)[C@H]2CO
(2) OC[C@@H]1[C@@H](O)[C@H](O)[C@@H](O)c2nc(CCc3ccccc3)cn21
Hi team, can someone confirm which has the larger Ki: 1 or 2 ? Thanks. // caller expects the label of the chosen entry
2
(2: 1.9 nM, 1: 0.64 nM)

FYI, the data here is from ChEMBL document CHEMBL1765013.
